Target: T1, cyno IL-33 N-His (cynomolgus monkey)
T1 chain: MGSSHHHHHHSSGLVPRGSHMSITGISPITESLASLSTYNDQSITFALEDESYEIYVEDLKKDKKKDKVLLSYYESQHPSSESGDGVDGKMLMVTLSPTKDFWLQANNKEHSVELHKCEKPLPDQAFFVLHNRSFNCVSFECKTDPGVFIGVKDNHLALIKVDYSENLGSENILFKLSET
Experiment: SPR Biacore T200, 37 C
Description: The binding kinetics of the anti-IL-33 antibody 10C12.38.H6.87Y.58I IgG4 and each anti-IL-33 antibody listed in Table 5 (RG1-RG20) to IL-33 were measured using surface plasmon resonance (SPR) on a BIACORE® T200 instrument (GE Healthcare). […] Antibody binding was measured to human IL-33 (R&D systems, #3625-IL-010/CF) and cyno IL-33 N-His (SEQ ID NO: 317) (Genentech, Inc.). […] After injection, disassociation of the ligand from the antibody was monitored for 10 min in running buffer. […]
quantity-kind: Kd (nM)
Answers are plain numbers, in nM.

- binder: "H4H9675P (antibody, V domains shown) VH: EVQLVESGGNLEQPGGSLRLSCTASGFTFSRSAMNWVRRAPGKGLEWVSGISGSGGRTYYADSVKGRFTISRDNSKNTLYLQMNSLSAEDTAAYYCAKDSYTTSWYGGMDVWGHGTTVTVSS VL: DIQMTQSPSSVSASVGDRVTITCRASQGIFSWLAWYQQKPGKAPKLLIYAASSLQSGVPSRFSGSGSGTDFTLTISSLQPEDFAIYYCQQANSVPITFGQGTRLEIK"
  quantity-kind: "Kd"
  endpoint-result: 6.72

INPUT: Fill in: Kd of H4H9659P (antibody, IgG4, V domains shown, also called RG7) VH: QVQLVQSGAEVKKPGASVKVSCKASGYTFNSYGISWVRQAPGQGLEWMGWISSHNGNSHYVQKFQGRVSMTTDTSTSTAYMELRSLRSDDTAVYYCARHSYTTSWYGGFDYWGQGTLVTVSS VL: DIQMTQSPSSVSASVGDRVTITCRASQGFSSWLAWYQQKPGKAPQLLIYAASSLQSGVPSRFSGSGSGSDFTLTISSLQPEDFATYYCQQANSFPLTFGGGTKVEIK is ___
OUTPUT: 4.13

Entry source: patent US20190092852A1
